Values were extracted from patent US20250289785A1.

TEST_SUMMARY: Plasma and brain concentration after oral administration to ICR mice (HPLC-MS/MS)
Type: in vivo
TEST_CONDITIONS: ICR, mouse, brain, po, 10 mg/kg, 24 hours after administration, read-out: drug concentration in the brain

ITEM_SMILES: COCc1cc(NC2CCCC2)c2[nH]c(-c3ccccc3)cc2c1
concentration at 24 h / ng/mL: 5.7

* * *

TEST_SUMMARY: Plasma and brain concentration after oral administration to ICR mice (HPLC-MS/MS)
Type: in vivo
TEST_CONDITIONS: ICR, mouse, brain, po, 10 mg/kg, 2 hours after administration, read-out: brain drug concentration
REPORTED_METRIC: concentration at 2 h (ng/mL)

ITEM_SMILES: COCc1cc(NC2CCCC2)c2[nH]c(-c3ccccc3)cc2c1
UOM: ng/mL
NUMBER: 1040

* * *

System: H9C2 cells
TEST_SUMMARY: Cell death protective effect in cardiac myocytes against Erastin, glutamate and RSL3 (LDH)
Type: cell-based, white mouse
TEST_CONDITIONS: H9C2, Glutamate, 25 mM; compound 1.0 μM; 24 h

COMPOUND: COCc1cc(NC2CCOCC2)c2[nH]c(-c3ccccc3)cc2c1 [Example 1]
UOM: %
inhibition (%): 98

COMPOUND: CCOC(=O)c1ccc(NC2CCCCC2)c(N)c1 [Ferrostatin-1, reference compound]
UOM: %
inhibition (%): 97

COMPOUND: COCc1cc(NC2CC[S+]([O-])CC2)c2[nH]c(-c3ccccc3)cc2c1 (centres unmarked) [Example 14]
UOM: %
inhibition (%): 99

COMPOUND: CCOCc1cc(NC2CCOCC2)c2c(c1)c(COC)c(-c1ccccc1)n2C [Example 29]
UOM: %
inhibition (%): 95

COMPOUND: CCOCc1cc(NC2CCCC2)c2[nH]c(-c3ccccc3)cc2c1 [Example 19]
UOM: %
inhibition (%): 100

COMPOUND: CCOCc1cc(NC2CCOCC2)c2[nH]c(-c3ccccc3)c(-c3ncc[nH]3)c2c1 [Example 46]
UOM: %
inhibition (%): 94

COMPOUND: COCCc1cc(NC2CCOCC2)c2[nH]c(-c3ccccc3)cc2c1 [Example 41]
UOM: %
inhibition (%): 98

COMPOUND: COCc1cc(NC2CCCC2)c2[nH]c(-c3ccccc3)cc2c1 [Example 2]
UOM: %
inhibition (%): 98

* * *

System: NIH/3T3 cells
TEST_SUMMARY: Cell death protective effect in fibroblasts against Erastin, glutamate and RSL3 (LDH)
Type: cell-based, mouse
TEST_CONDITIONS: NIH/3T3, RSL3, 3 μM; compound 0.1 μM; 24 h
REPORTED_METRIC: inhibition (%)

MOLECULE: COCc1cc(NC2CCOCC2)c2[nH]c(-c3ccccc3)cc2c1
UOM: %
NUMBER: 98
--
MOLECULE: CCOCc1cc(NC2CCOCC2)c2c(c1)c(COC)c(-c1ccccc1)n2C
UOM: %
NUMBER: 100
--
MOLECULE: CCOCc1cc(NC2CCOCC2)c2[nH]c(-c3ccccc3)c(-c3ncc[nH]3)c2c1
UOM: %
NUMBER: 0
--
MOLECULE: COCc1cc(NC2CC[S+]([O-])CC2)c2[nH]c(-c3ccccc3)cc2c1 (centres unmarked)
UOM: %
NUMBER: 100
--
MOLECULE: CCOC(=O)c1ccc(NC2CCCCC2)c(N)c1 [Ferrostatin-1, reference compound]
UOM: %
NUMBER: 100
--
MOLECULE: COCc1cc(NC2CCCC2)c2[nH]c(-c3ccccc3)cc2c1
UOM: %
NUMBER: 100
--
MOLECULE: COCCc1cc(NC2CCOCC2)c2[nH]c(-c3ccccc3)cc2c1
UOM: %
NUMBER: 100
--
MOLECULE: CCOCc1cc(NC2CCCC2)c2[nH]c(-c3ccccc3)cc2c1
UOM: %
NUMBER: 100
